Overview of recorded activity change, negative = cytotoxicity for various compounds
- protocol details: P-glycoprotein substrates identified in KB-8-5-11 adenocarcinoma cell line, qHTS therapeutic library screen (AID 1346987); note: % is set by controls: 0 for no effect and ±100 for the full control effect; nearly all actives have a fitted effect of over 65% in size
- experimental parameters: KB-8-5-11 (P-gp overexpressing) viability, CellTiter-Glo, 72 h; series mostly up to 44.5 µM
Records with an inconclusive call do not appear. Activity calls are given as the source filed them. Calls come from the whole dose curve; as a rule, active = well fitted inhibition curve with a large enough effect; inconclusive = small, poorly fitted or top-dose-only effect; inactive = flat fitted curve, though single readings scatter.
metric: activity change, negative = cytotoxicity

compound	obs value
CC(=O)N[C@H]1[C@H](O[C@H]2CC[C@@]3(C)C(CC[C@]4(C)C3CC=C3C5CC(C)(C)CC[C@]5(C(=O)O)[C@H](O)C[C@]34C)C2(C)C)O[C@H](CO[C@@H]2OC[C@H](O)[C@H](O)[C@H]2O[C@@H]2OC[C@@H](O)[C@H](O)[C@H]2O)[C@@H](O)[C@@H]1O (stereo not given in full)	5.39% [at 9.29 µM] (inactive)
CC(C)C[C@H](CC(=O)NO)C(=O)N[C@H](C(=O)N[C@@H](C)C(=O)NCCN)C(C)(C)C	2.84% [at 9.29 µM] (inactive)
COC1CC(O[C@H]2CC[C@@]3(C)C(=CC[C@]4(O)C3[C@H](OC(C)=O)[C@@H](OC(=O)c3ccccc3)[C@]3(C)[C@@H](C(C)=O)CC[C@@]34O)C2)OC(C)C1OC1CC(OC)C(OC2CC(OC)C(OC3OC(C)C(OC4OC(CO)C(O)C(O)C4O)C(OC)C3O)C(C)O2)C(C)O1 (stereo not given in full)	1.94% [at 9.29 µM] (inactive)
CC1OC(OC2C(O)C(OC3CCC4(C)C(CCC5(C)C4CC=C4C6CC(C)(COC7OC(CO)C(O)C(O)C7O)CC(O)C6(C)CCC45C)C3(C)C)OC(C(=O)O)C2O)C(O)C(O)C1OC1OCC(O)C(O)C1O (stereo not given)	1.43% [at 9.29 µM] (inactive)
C/C=C(\C)C(=O)OCC1OC(OC2OC(COC(=O)/C(C)=C/C)C(OC3OC(CO)C(OC(=O)/C(C)=C/C)C(OC(=O)/C(C)=C/C)C3O)C(O)C2O)C(O)C(O)C1OC1OC(CO)C(OC(=O)/C(C)=C/C)C(OC(=O)/C(C)=C/C)C1O (stereo not given)	8.2% [at 9.29 µM] (inactive)

====

- protocol details: Vero cells viability qHTS for Zika virus inhibitors (AID 1347167); note: % is set by controls: 0 for no effect and ±100 for the full control effect
- experimental parameters: cytotoxicity counter-screen (Zika); series mostly up to 45.9 µM
Records with an inconclusive call do not appear. Calls of active or inactive are those of the source. Calls follow the shape of the dose curve; as a rule, active = well fitted cell-killing curve with a large enough effect; inconclusive = small, poorly fitted or top-dose-only effect; inactive = flat fitted curve, though single readings scatter.
metric: outcome

> print(dat)
                                   molecule  obs.value
1  COc1cc(Nc2nc3ccccc3nc2NS(=O)(=O)c2ccc(NC(=O)c3ccc(OC)c(C)c3)cc2)cc(OC)c1   inactive
2   C=CC/C=C\C/C=C\CCCCCCCc1cccc(O)c1C(=O)O   inactive
3  CC1=C(C(=O)OCc2ccccc2)C(c2ccc(-c3ccccc3)cc2)NC(=O)N1CCCCCC(=O)O (centres undefined)   inactive
4  O=C(O)Cc1ccc2oc(-c3ccc(NC(=O)/C=C/c4ccc(Br)cc4)c(F)c3)nc2c1   inactive

====

Overview of recorded activity change, negative = cytotoxicity for various compounds
- Tested on: Tov-21-G
- protocol details: Primary qHTS to identify gynecologic anti-cancer compounds using libraries of approved drugs and bioactive compounds (AID 1345084); note: % is set by controls: 0 for no effect and ±100 for the full control effect; nearly all actives have a fitted effect of over 55% in size
- experimental parameters: Gynecologic cancer cell panel viability, ATPlite luminescence, 48 h; series mostly up to 57.5 µM
Records with an inconclusive call do not appear. The source made the active and inactive calls. Calls come from the whole dose curve; as a rule, active = well fitted cell-killing curve with a large enough effect; inconclusive = small, poorly fitted or top-dose-only effect, or effect the other way; inactive = flat fitted curve, though single readings scatter.

compound	assay system	activity change, negative = cytotoxicity
C[C@@H]1O[C@@H](O[C@H]2[C@H](O)[C@@H](O[C@@H]3O[C@H](CO)[C@@H](O)[C@H](O[C@@H]4O[C@H](CO)[C@@H](O)[C@H](O)[C@H]4O)[C@H]3O)[C@H](O[C@H]3CC[C@@]4(C)C(=CC[C@@H]5C4CC[C@@]4(C)C5C[C@@H]5OC6(CC[C@@](C)(CO[C@@H]7O[C@H](CO)[C@@H](O)[C@H](O)[C@H]7O)O6)[C@@H](C)[C@@H]54)C3)O[C@@H]2CO)[C@H](O)[C@H](O)[C@H]1OC1OC(CO)C(O)C(O)C1O (stereo partly drawn)	Tov-21-G	-0.0744% [at 6.55 µM] (inactive)
C=CC1C(OC2OC(CO)C(O)C(O)C2O)OC=C(C(=O)OC)C1CC(=O)OCC1C(C)C(O)CC1C(CO)COC(=O)CC1C(C(=O)O)=COC(OC2OC(CO)C(O)C(O)C2O)/C1=C\C (stereo not drawn)	Tov-21-G	-4.06% [at 11.6 µM] (inactive)
CC1OC(OC2C(OC3C(O[C@H]4CC[C@@]5(C)C(CC[C@]6(C)C5C(=O)C=C5C7CC(C)(C)CC(O)[C@]7(C)CC[C@]56C)C4(C)C)OC(C(=O)O)C(O)C3O)OCC(O)C2O)C(O)C(O)C1O (stereo partly drawn)	Tov-21-G	2.59% [at 11.6 µM] (inactive)

The origin of these recorded values is PubChem BioAssay (NCATS).
